# target of assay: T1, human ASGR-1 (wild type) (human, UniProt P07306 1-291)
# T1 construct: also called wt ASGR1; huASGR-1
# T1 sequence: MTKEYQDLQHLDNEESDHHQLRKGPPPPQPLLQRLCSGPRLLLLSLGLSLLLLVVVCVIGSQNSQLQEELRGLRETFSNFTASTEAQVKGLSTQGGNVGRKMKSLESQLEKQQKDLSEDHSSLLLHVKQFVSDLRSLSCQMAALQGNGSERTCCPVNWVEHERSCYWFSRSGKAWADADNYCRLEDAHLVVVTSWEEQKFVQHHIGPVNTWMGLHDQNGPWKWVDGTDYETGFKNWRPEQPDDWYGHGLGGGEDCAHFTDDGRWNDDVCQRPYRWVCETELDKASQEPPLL
# assay details: FACS, transfected CHO-S cells, mAb 5 ug/ml
endpoint name: FACS Binding Geomean

What FACS Binding Geomean value was documented for this binder, 193E7 (antibody, V domains shown, mAb) VH: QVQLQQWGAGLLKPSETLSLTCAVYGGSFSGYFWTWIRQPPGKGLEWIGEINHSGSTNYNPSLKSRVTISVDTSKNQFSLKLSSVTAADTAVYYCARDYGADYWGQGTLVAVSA VL: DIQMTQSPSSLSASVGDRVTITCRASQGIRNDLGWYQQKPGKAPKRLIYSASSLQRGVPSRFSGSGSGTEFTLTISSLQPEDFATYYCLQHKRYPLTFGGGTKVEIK ?
35500

// repeat for 149D11 (antibody, V domains shown, mAb) VH: EVQLLESGGGLVQPGGSLRLSCAASGFTFSSYAMSWVRQAPGKGLEWVSAISGRGGNTFYADSVKGRFTISRDNSKNTLYRQMNSLRAEDTAVYYCAKKDYDYVWGSPYFDYWGQGTLVTVSS VL: DIQMTQSPASVSASVGDRVTITCRASQNISNWLTWYQQKPGKAPKLLIYAASSLQSGVPSRFSGSGSGTDFTLSISSLQPEDFATYYCQQTDSFPFTFGPGTKVDVK and report
23600
